test.method.notes: qHTS assay for small molecules that induce genotoxicity in human embryonic kidney cells expressing luciferase-tagged ATAD5 (AID 651632); also: nearly all actives have a fitted effect of over 15% in size
test.conditions: HEK293T ATAD5-luciferase induction, 16 h; series mostly up to 83.3 µM
Records with an inconclusive call do not appear. Activity calls are given as the source filed them. Calls follow the shape of the dose curve; as a rule, active = well fitted activation curve with a large enough effect in the repeat runs; inconclusive = weak or mixed curves; inactive = no such curve, though single readings can be large or run the other way.
reported.metric: outcome

Solved entries (count: 8):
{"compound": "O=c1[nH]cnc2c1ncn2[C@@H]1O[C@H](CO)[C@@H](O)[C@H]1O", "outcome": "inactive"}
{"compound": "C=C(C)C(=O)OCCOP(=O)(O)O", "outcome": "inactive"}
{"compound": "CCc1nnc(NS(=O)(=O)c2ccc(N)cc2)s1", "outcome": "inactive"}
{"compound": "CCOC(=O)NCCC[Si](OCC)(OCC)OCC", "outcome": "inactive"}
{"compound": "FC(F)(F)C(Cl)(Cl)Cl", "outcome": "inactive"}
{"compound": "CC1(O)CSC(C)(O)CS1 (centres undefined)", "outcome": "inactive"}
{"compound": "CC1=C(O)C(=O)OC1C (centres undefined)", "outcome": "inactive"}
{"compound": "CC(C)CC(=O)OCc1ccccc1", "outcome": "inactive"}

# outcome lookup, item `CCOc1ccc(NS(=O)(=O)c2ccc(N)cc2)nn1` inactive

Would you mind telling me what outcome value was observed for `Cc1ccc([N+](=O)[O-])cc1Cl` ? inactive

Need outcome, item `Cc1ccc(C=O)s1` inactive

Entry under review: `CCOc1ccc(OCC)c(Cl)c1` . Reported outcome? inactive

Item `Clc1cccc(-c2cc(Cl)cc(Cl)c2)c1` has what recorded outcome? inactive

What value of measured outcome is listed for `NCCCN1CCN(CCCN)CC1` ? inactive
